Collected Vd values appear next to each entry.
Assay: Volume of distribution at steady state in rat at 0.5 mg/kg, iv or 2 mg/kg, po
Assay type: ADME, organism-based
Settings: in vivo, read-out: Vdss

## Input Which Vd reading was recorded for the molecule C[C@@H]1CN(c2cnc3c(C#N)nn([C@H](C)c4ccc(Cl)cc4Cl)c3n2)CC[C@@H]1N1CCC[C@H]1CO ?
## Output 13.4 L/kg

## Input Query (molecule): C[C@@H]1CC(c2cnc3c(C#N)nn([C@H](C)c4ccc(Cl)cc4Cl)c3n2)=CC[C@@H]1N1CCC[C@H]1CO ; field requested: Vd
## Output 9.8 L/kg
